molecular target: lipoamide dehydrogenase (Lpd) (Mycobacterium tuberculosis (strain ATCC 25618 / H37Rv)); test: Lipoamide Dehydrogenase (Lpd) Inhibition Assay; assay type: biochemical; conditions: concentration required for 50% inhibition of LPD activity; DTNB detection, OD405 nm
Observed property: IC50 (nM)
Write the answer as a number in nM, unit excluded.

Please review the following examples before continuing.
[[record]]
compound = "CC1(C)C(=O)N=C2c3ccccc3C(=O)C(=O)C21 (centres unmarked)"
reading = 860

[[record]]
compound = "Cc1cc(C)cc(NC(=O)C2CCN(S(=O)(=O)c3cn(C(C)C)cn3)CC2)c1"
reading = 2670

[[record]]
compound = "COc1cccc(NC(=O)C2CCN(S(=O)(=O)c3cn(C(C)C)cn3)CC2)c1"
reading = 2460

[[record]]
compound = "CC(C)n1cnc(S(=O)(=O)N2CCC(C(=O)NCc3ccc(Br)cc3)CC2)c1"
reading = 3200


Prompt: Endpoint output: IC50 of "CC(C)n1cnc(S(=O)(=O)N2CCC(C(=O)Nc3ccc(F)c(Cl)c3)CC2)c1" . Value?
Response: 3130

Ref: patent US9073941B2
